- Experimental Context: in n-heptane, 304.56 K
Measurement Name: solubility (mole fraction)

Tell me the measured solubility (mole fraction) of Cc1ccc2cc(C)ccc2c1 , please. 0.0529

* * *

- Experimental Context: in n-propyl acetate, 333.46 K
Measurement Name: solubility (mole fraction)
Respond using a number only.

Tell me the measured solubility (mole fraction) of Cc1ccc2cc(C)ccc2c1 , please. 0.245

* * *

- Experimental Context: in isopropanol, 341.65 K
Measurement Name: solubility (mole fraction)
Respond using a number only.

Tell me the measured solubility (mole fraction) of Cc1ccc2cc(C)ccc2c1 , please. 0.0517

* * *

- Experimental Context: in cyclohexane, 318.76 K
Measurement Name: solubility (mole fraction)
Respond using a number only.

Tell me the measured solubility (mole fraction) of Cc1ccc2cc(C)ccc2c1 , please. 0.096
